# assay-name: chemical genetic growth profiling, strain panel (AID 1159580);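 also: tested at 20 µM; growth read once vehicle control cultures reached saturation at 30 °C; lower values mean less growth of the strain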
# condition-label: S. cerevisiae deletion strains, growth OD, locus YDR334W, strain swr1
The campaign covered roughly 5,500 compounds. About 2,000 (36%) were called active. Inconclusive results (about 18%) are left out. Rule as the data show it: active = normalized growth mostly below about 0.91 (no sharp cut-off); inconclusive = no clear call, values can overlap the other calls; inactive = mostly above about 0.92. The list shows a part of the results.
Outcome codes: active, inactive

compound="COC(=O)C[C@H]1C2(C)CC34OC5(C)O[C@@]6([C@H](OC)C(OC(=O)C(C)C)[C@]7(C)C(/C(=C(/OC)C(C)C)C(=O)O[C@H]7c7ccoc7)[C@@]6(O5)[C@H](OC)[C@@]3(OC)C2OC(C)=O)[C@]14C (some centres not stated)" category_label=inactive
compound=COC(=O)/C=C/C(C)=C/C=C/C(C)=C/C=C/C=C(C)/C=C/C=C(C)/C=C/C(=O)O category_label=inactive
compound="CC#CC1(O)CCC2C3CCC4=CC(=O)CCC4=C3C(c3ccc(N(C)C)cc3)CC21C (configuration not stated)" category_label=inactive
compound=CN1C2C[C@H](OC(=O)[C@H](CO)c3ccccc3)C[C@H]1[C@@H](O)C2 category_label=inactive
compound="C/C=C(\\C)C(=O)O[C@H]1C[C@@H](OC(C)=O)[C@@]2(C(=O)OC)CO[C@@H]3C2[C@]12CO[C@](O)(C(=O)OC)[C@H]2[C@](C)(C12O[C@@]1(C)[C@H]1C[C@@H]2OC2OC=C[C@@]21O)[C@@H]3O (some centres not stated)" category_label=inactive
compound=CCn1cc(C(=O)O)c(=O)c2cc(F)c(N3CCNCC3)nc21 category_label=inactive
compound=Nc1ncn[nH]1 category_label=inactive
compound=NS(=O)(=O)c1cc2c(cc1Cl)NC=NS2(=O)=O category_label=inactive
compound=NCCCS(=O)(=O)O category_label=inactive
compound="CC[C@@H](C(=O)C(C)[C@@H](O)[C@H](C)CCc1ccc(C)c(O)c1C(=O)O)C1OC(CC)(C2CC[C@](O)(CC)[C@H](C)O2)C[C@@H]1C (some centres not stated)" category_label=inactive
compound="CCC(C)C(=O)O[C@@H]1C[C@@]2(C)[C@H](c3ccoc3)OC(=O)CC23OC2(C)O[C@]14[C@]1(C)[C@@H](CC(=O)OC)C5(C)CC1(O)[C@](O)(C5OC(=O)C1(C)OC1C)[C@@H](OC(C)=O)[C@]34O2 (some centres not stated)" category_label=inactive
compound="COc1cc2nc(N(C)CCCNC(=O)C3CCCO3)nc(N)c2cc1OC (configuration not stated)" category_label=inactive
compound=O=C(Oc1cc(O)cc2c1C[C@@H](OC(=O)c1cc(O)c(O)c(O)c1)[C@@H](c1cc(O)c(O)c(O)c1)O2)c1cc(O)c(O)c(O)c1 category_label=inactive
compound="CN1C2CCC1CC(OC(c1ccccc1)c1ccccc1)C2 (configuration not stated)" category_label=inactive
compound="COc1cc([C@@H]2c3cc4c(cc3C(OC3O[C@@H]5COC(C)O[C@H]5[C@H](O)[C@H]3O)C3COC(=O)[C@@H]32)OCO4)cc(OC)c1O (some centres not stated)" category_label=inactive
compound="CC1CCc2cc(F)cc3c(=O)c(C(=O)O)cn1c23 (configuration not stated)" category_label=inactive
compound=C#CCCCCCCCCCCCc1ccco1 category_label=inactive
compound=O=C(/C=C/c1ccc(O)c(O)c1)OCCc1ccccc1 category_label=active
compound=CCN(CC)C(=O)N1CCN(C)CC1 category_label=inactive
compound="COc1ccc(C2CNC(=O)C2)cc1OC1CCCC1 (configuration not stated)" category_label=inactive
compound=O=C(O)/C=C/c1ccc(O)c(O)c1 category_label=inactive
compound=Nc1nc(=S)c2[nH]cnc2[nH]1 category_label=inactive
compound=O=S(=O)(O)c1cc(N=C=S)ccc1/C=C/c1ccc(N=C=S)cc1S(=O)(=O)O category_label=inactive
compound="c1ccc2c(c1)CCCC2C1=NCCN1 (configuration not stated)" category_label=inactive
compound=Cc1ccc(S(=O)(=O)NC(=O)NN2CCCCCC2)cc1 category_label=inactive
compound=O=S(=O)(O)CCS category_label=inactive
compound=CN(C)CCN(Cc1ccccc1)c1ccccn1 category_label=inactive
compound=O=C(NC(=O)c1ccccc1Cl)Nc1ccc(OC(F)(F)F)cc1 category_label=inactive
compound="COc1ccc(OC)c(C(O)CNC(=O)CN)c1 (configuration not stated)" category_label=inactive
compound="N=c1ccn2c(n1)OC1C(O)C(CO)OC12 (configuration not stated)" category_label=inactive
compound="COc1cc([C@@H]2c3cc4c(cc3[C@@H](O)C3COC(=O)C32)OCO4)cc(OC)c1O (some centres not stated)" category_label=inactive
compound="C=CC[C@]1(O)CCC2C3CCC4=CC(=O)CCC4=C3C=C[C@@]21C (some centres not stated)" category_label=inactive
compound="CN1C2CCC1CC(OC(c1ccccc1)c1ccccc1N)C2 (configuration not stated)" category_label=inactive
compound=CN1CC(=O)N=C1N category_label=inactive
compound="CCCCC/C=C/CCC(=O)N[C@H]1[C@H](Oc2c3cc4cc2Oc2ccc(cc2Cl)[C@@H](O[C@@H]2O[C@H](CO)[C@@H](O)[C@H](O)[C@H]2NC(C)=O)[C@@H]2NC(=O)[C@H](NC(=O)[C@@H]4NC(=O)[C@H]4NC(=O)C(Cc5ccc(c(Cl)c5)O3)NC(=O)[C@H](N)c3ccc(O)c(c3)Oc3cc(O)cc4c3)c3ccc(O)c(c3)-c3c(OC4O[C@H](CO)[C@@H](O)[C@H](O)[C@@H]4O)cc(O)cc3[C@@H](C(=O)O)NC2=O)O[C@H](CO)[C@@H](O)[C@@H]1O (some centres not stated)" category_label=inactive
compound=C=CCc1ccc(OC)cc1 category_label=inactive
compound="C=C1C2CC[C@@]3(C)[C@H](c4ccoc4)OC(=O)C[C@]13O[C@H]1CC(=O)C(C)(C)[C@H](C(OC(C)=O)C(=O)OC)[C@@]21C (some centres not stated)" category_label=inactive

All values here come from PubChem BioAssay AID1159580.
